Reference source for all entries: ChEMBL document CHEMBL1130926

target: Histamine H3 receptor (Cavia porcellus, UniProt Q9JI35)
Sequence (Q9JI35 whole entry): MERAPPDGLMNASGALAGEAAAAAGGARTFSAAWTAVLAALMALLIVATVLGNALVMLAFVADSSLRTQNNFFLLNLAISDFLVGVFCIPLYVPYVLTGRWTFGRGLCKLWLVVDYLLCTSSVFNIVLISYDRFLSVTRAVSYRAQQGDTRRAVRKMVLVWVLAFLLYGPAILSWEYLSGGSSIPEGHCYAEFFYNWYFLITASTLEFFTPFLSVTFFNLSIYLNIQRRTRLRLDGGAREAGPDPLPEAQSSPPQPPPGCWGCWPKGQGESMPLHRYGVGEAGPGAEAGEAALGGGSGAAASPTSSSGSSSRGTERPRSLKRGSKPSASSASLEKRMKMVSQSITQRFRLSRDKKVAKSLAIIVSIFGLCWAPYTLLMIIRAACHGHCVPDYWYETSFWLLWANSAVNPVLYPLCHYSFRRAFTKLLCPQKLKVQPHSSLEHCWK
Binary call on Ki with cut-off 50 nM: strictly below means satisfied, and equality or higher means not satisfied.

| structure.as.smiles | experimental.target | label.class |
| --- | --- | --- |
| O=[N+]([O-])c1ccccc1CS(=O)(=O)NCCCCc1cnc[nH]1 | Histamine H3 receptor (Cavia porcellus, UniProt Q9JI35) | satisfied |
| Cn1cc[n+](S(=O)(=O)NCCCCc2c[nH]cn2)c1 | Histamine H3 receptor (Cavia porcellus, UniProt Q9JI35) | satisfied |
| O=S(=O)(NCCCCc1c[nH]cn1)c1ccc(C(F)(F)F)cc1 | Histamine H3 receptor (Cavia porcellus, UniProt Q9JI35) | satisfied |
| O=S(=O)(NCCCc1cnc[nH]1)c1cccs1 | Histamine H3 receptor (Cavia porcellus, UniProt Q9JI35) | not satisfied |

## Input State whether 50 nM exceeds Ki recorded for `O=S(=O)(NCCCCc1cnc[nH]1)c1ccccc1` .
## Output satisfied

---

Notes on pKi obtained with Histamine H3 receptor (Cavia porcellus).
Expect pKi as a plain number equal to -log10 of the molar concentration.

Worked examples, 2 molecules total:
| structure.as.smiles | pKi |
| --- | --- |
| O=[N+]([O-])c1ccc(S(=O)(=O)NCCCCc2cnc[nH]2)cc1 | 7.78 |
| O=S(=O)(Cc1ccccc1)NCCCCc1c[nH]cn1 | 8.22 |

# input for lookup
## Input Give the reported pKi for `O=S(=O)(NCCCCc1c[nH]cn1)c1cccc(Cl)c1` (system: Histamine H3 receptor (Cavia porcellus)).
## Output 8.07
